# Target entity: mouse VISTA (mVISTA) (Mus musculus, UniProt Q9D659)
# Construct: expressed in transfected cells; host or cells: Human embryonic kidney 293T cells
# Sequence (Q9D659 33-308): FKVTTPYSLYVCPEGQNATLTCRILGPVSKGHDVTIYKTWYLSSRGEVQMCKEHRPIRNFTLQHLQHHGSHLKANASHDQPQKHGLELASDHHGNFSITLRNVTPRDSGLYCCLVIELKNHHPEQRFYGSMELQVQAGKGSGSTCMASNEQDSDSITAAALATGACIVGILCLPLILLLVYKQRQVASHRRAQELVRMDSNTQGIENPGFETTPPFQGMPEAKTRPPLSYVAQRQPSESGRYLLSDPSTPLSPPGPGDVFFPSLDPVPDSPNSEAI
# Assay method text: Cell-Based Binding High-Content Assay For mVISTA (HC CBA mVISTA)
# Measurement context: read-out: HC CBA mVISTA IC50
Positions of bridges follow the written chain, without caps; N, C: chain ends. Non-standard residues stand in square brackets, D forms with d. Residues, ends and D or L forms follow the SMILES beside them. ξ: configuration not given here. Phe(3-Me) = Cc1cccc(C[C@H](N)C(=O)O)c1; Ahp(2) = CCCCC[C@H](N)C(=O)O; NMeNle = CCCC[C@H](NC)C(=O)O; NHexGly = CCCCCCNCC(=O)O; Nle = CCCC[C@H](N)C(=O)O; ξD = NC(CC(=O)O)C(=O)O
Assay endpoint: IC50 (nM)
Write down the numeric answer in nM and omit the unit.

compound="CCCCCCN1CC(=O)N[C@@H](Cc2ccc(O)cc2)C(=O)N[C@@H](CCCC)C(=O)N[C@@H](CC(=O)O)C(=O)N[C@@H](CCCNC(=N)N)C(=O)N[C@@H](CC(C)C)C(=O)N[C@@H](CCCCC)C(=O)N2CCC[C@H]2C(=O)N[C@@H](C(C)C)C(=O)N[C@@H](CC(=O)O)C(=O)N[C@H](C(=O)NC(CC(=O)O)C(N)=O)CSCC(=O)N[C@@H](Cc2ccccc2)C(=O)N[C@@H](Cc2cccc(C)c2)C(=O)N[C@@H](CC(=O)O)C1=O (some centres unmarked) [compound 1327] ({CH2CO}-F[Phe(3-Me)]D[NHexGly]Y[Nle]DRL[Ahp(2)]PVDC[ξD]-NH2; thioether N-14)" quantitative_result=13.9

Let us move to another entry and its IC50.
**Q:** Query for mouse VISTA (mVISTA) (Mus musculus, UniProt Q9D659): what IC50 does the record show for CCCCCCN1CC(=O)N[C@@H](Cc2ccc(O)cc2)C(=O)N[C@@H](CCCC)C(=O)N[C@@H](CC(=O)O)C(=O)N[C@@H](CCCNC(=N)N)C(=O)N(C)[C@@H](CCCC)C(=O)N[C@@H](CCCCC)C(=O)N2CCC[C@H]2C(=O)N[C@@H](C(C)C)C(=O)N[C@@H](CC(=O)O)C(=O)N[C@H](C(=O)N[C@@H](CO)C(N)=O)CSCC(=O)N[C@@H](Cc2ccccc2)C(=O)N[C@@H](Cc2c[nH]c3ccccc23)C(=O)N[C@@H](CC(=O)O)C1=O [Example 1407] ({CH2CO}-FWD[NHexGly]Y[Nle]DR[NMeNle][Ahp(2)]PVDCS-NH2; thioether N-14) ?
**A:** 34.5

* * *

# Target entity: mouse VISTA (mVISTA) (Mus musculus)
# Construct: expressed in transfected cells; host or cells: Human embryonic kidney 293T cells
# Assay method text: Cell-Based Binding High-Content Assay For mVISTA (HC CBA mVISTA)
# Measurement context: cell-based binding high-content assay, mVISTA; the 15th table; read-out: HC CBA mVISTA IC50
Positions of bridges follow the written chain, without caps; N, C: chain ends. Non-standard residues stand in square brackets, D forms with d. Residues, ends and D or L forms follow the SMILES beside them. 2Nal = N[C@@H](Cc1ccc2ccccc2c1)C(=O)O; Cit = NC(=O)NCCC[C@H](N)C(=O)O; Ahp(2) = CCCCC[C@H](N)C(=O)O; NHexGly = CCCCCCNCC(=O)O; Nle = CCCC[C@H](N)C(=O)O
Assay endpoint: pIC50
Quick note: pIC50 means taking -log10 of the concentration in moles per liter.

compound="CCCCCCN1CC(=O)N[C@@H](Cc2ccc(O)cc2)C(=O)N[C@@H](CC(C)C)C(=O)NCC(=O)N[C@@H](CCCNC(=N)N)C(=O)N[C@@H](Cc2ccc(O)cc2)C(=O)N[C@@H](CCCCC)C(=O)N2CCC[C@H]2C(=O)N[C@@H](C(C)C)C(=O)N[C@@H](CC(=O)O)C(=O)N[C@H](C(=O)NCC(N)=O)CSCC(=O)N[C@@H](Cc2ccc3ccccc3c2)C(=O)N[C@@H](Cc2c[nH]c3ccccc23)C(=O)N[C@@H](CC(=O)O)C1=O [compound 1264] ({CH2CO}-[2Nal]WD[NHexGly]YLGRY[Ahp(2)]PVDCG-NH2; thioether N-14)" quantitative_result=7.55

**Q:** Query for mouse VISTA (mVISTA) (Mus musculus): what pIC50 does the record show for CCCCCCN1CC(=O)N[C@@H](Cc2ccc(O)cc2)C(=O)N[C@@H](CCCC)C(=O)N[C@@H](CC(N)=O)C(=O)N[C@@H](CCCNC(=N)N)C(=O)N[C@@H](CC(C)C)C(=O)N[C@@H](CCCCC)C(=O)N2CCC[C@H]2C(=O)N[C@@H](C(C)C)C(=O)N[C@@H](CC(=O)O)C(=O)N[C@H](C(=O)NCC(=O)O)CSCC(=O)N[C@@H](Cc2ccc3ccccc3c2)C(=O)N[C@@H](Cc2c[nH]c3ccccc23)C(=O)N[C@@H](CC(=O)O)C1=O [compound 1229] ({CH2CO}-[2Nal]WD[NHexGly]Y[Nle]NRL[Ahp(2)]PVDCG-OH; thioether N-14) ?
**A:** 7.88

**Q:** Query for mouse VISTA (mVISTA) (Mus musculus): what pIC50 does the record show for CCCCCCN1CC(=O)N[C@@H](Cc2ccc(O)cc2)C(=O)N[C@@H](C(C)C)C(=O)NCC(=O)N[C@@H](CCCNC(=N)N)C(=O)N[C@@H](CC(C)C)C(=O)N[C@@H](CCCCC)C(=O)N2CCC[C@H]2C(=O)N[C@@H](C(C)C)C(=O)N[C@@H](CC(=O)O)C(=O)N[C@H](C(=O)NCC(N)=O)CSCC(=O)N[C@@H](Cc2ccc3ccccc3c2)C(=O)N[C@@H](Cc2c[nH]c3ccccc23)C(=O)N[C@@H](CC(=O)O)C1=O [compound 1228] ({CH2CO}-[2Nal]WD[NHexGly]YVGRL[Ahp(2)]PVDCG-NH2; thioether N-14) ?
**A:** 7.57

**Q:** Query for mouse VISTA (mVISTA) (Mus musculus): what pIC50 does the record show for CCCCCCN1CC(=O)N[C@@H](Cc2ccc(O)cc2)C(=O)N[C@@H](CCCC)C(=O)N[C@@H](CC(N)=O)C(=O)N[C@@H](CCCNC(N)=O)C(=O)N[C@@H](CC(C)C)C(=O)N[C@@H](CCCCC)C(=O)N2CCC[C@H]2C(=O)N[C@@H](C(C)C)C(=O)N[C@@H](CC(=O)O)C(=O)N[C@H](C(=O)NCC(=O)O)CSCC(=O)N[C@@H](Cc2ccc3ccccc3c2)C(=O)N[C@@H](Cc2c[nH]c3ccccc23)C(=O)N[C@@H](CC(=O)O)C1=O [compound 1233] ({CH2CO}-[2Nal]WD[NHexGly]Y[Nle]N[Cit]L[Ahp(2)]PVDCG-OH; thioether N-14) ?
**A:** 7.98
